test: protein stability index of a GFP-peptide fusion (yeast GPS) (PSI 1-4); higher = more stable; sorted into four equal gates, so the index is relative within each strain; conditions: doa10∆
reportedProperty: protein stability index
No unit in the answer, please; the number alone is enough.

Below, 3 sequences whose answers are already recorded.
{"sequenceChain": "NVSLIKIEGVATPQEAQ [RPL33B]", "protein stability index": 2.76}
{"sequenceChain": "LKSLYSFFNISPDAPKE [SIN4]", "protein stability index": 2.32}
{"sequenceChain": "ESFAELMTKLNSFKLFK [RPC17]", "protein stability index": 3.03}

[ask] Returns the measured protein stability index for the input sequence. Input: CLLSIPKSTKGKILTIK [YML103C/NUP188]
[reply] 1.67

[ask] Returns the measured protein stability index for the input sequence. Input: VQYLRSVQDLGGSATAR [YML031W/NDC1]
[reply] 2.14

[ask] Returns the measured protein stability index for the input sequence. Input: EGNYRNLNNLKQENAYL [RPB8]
[reply] 3.31

[ask] Returns the measured protein stability index for the input sequence. Input: PINLPPQIAQLPLATQQ [SNF5]
[reply] 2.15

Measured values drawn from the supplement of paper PMC9732359 for this set.
